biological target: HLA-A*02 (Homo sapiens, UniProt P04439, D140Y/D185E/D98H/E176V/E277Q/G131W/G231S/I119V/I121R/I166T/I218V/N151K/N90K/P208A/P217A/Q86G/Q94H/R138H/R169H); assay: MHC binding assay (UV-ligand exchange, beta2m ELISA), HLA-A*02; settings: MHC class I binding score, peptide exchange yield

{"Substance": "3 (KLEENGDLYL; listed as Homo sapiens) [compound 3]", "Peptide exchange": "++++ (>=75% = ++++)"}
{"Substance": "84 (ALCPRIHEV; listed as Homo sapiens) [compound 84]", "Peptide exchange": "++++ (>=75% = ++++)"}
{"Substance": "248 (YLDRFLAGV; listed as Homo sapiens) [compound 248]", "Peptide exchange": "++++ (>=75% = ++++)"}

====

target: HLA-A*02 (Homo sapiens, UniProt P04439, D140Y/D185E/D98H/E176V/E277Q/G131W/G231S/I119V/I121R/I166T/I218V/N151K/N90K/P208A/P217A/Q86G/Q94H/R138H/R169H); test: MHC binding assay (UV-ligand exchange, beta2m ELISA), HLA-A*02; conditions: MHC class I binding score, peptide exchange yield
Property measured: Peptide exchange

{"Substance": "229 (AILAHLNTV; listed as Homo sapiens) [compound 229]", "Peptide exchange": "++++ (>=75% = ++++)"}
{"Substance": "129 (RLQDILWFL; listed as Homo sapiens) [compound 129]", "Peptide exchange": "++++ (>=75% = ++++)"}
{"Substance": "95 (GLLGSLFFL; listed as Homo sapiens) [compound 95]", "Peptide exchange": "++++ (>=75% = ++++)"}
{"Substance": "100 (ALLGMIIVGV; listed as Homo sapiens) [compound 100]", "Peptide exchange": "+ (<20% = +)"}

# Peptide exchange lookup, item 16 (YTLDIPVLFGV; listed as Homo sapiens) [compound 16]
++++ (>=75% = ++++)

# Peptide exchange lookup, item 42 (LLDSVSRL; listed as Homo sapiens) [compound 42]
+ (<20% = +)

# Peptide exchange lookup, item 34 (FLLATEVVTV; listed as Homo sapiens) [compound 34]
++++ (>=75% = ++++)

# Peptide exchange lookup, item 14 (ILAKDLFEI; listed as Homo sapiens) [compound 14]
++++ (>=75% = ++++)
